Measured Activity, listed per entry.
# Test system: Rattus norvegicus
# Protocol: Antiinflammatory activity in Sprague-Dawley/Wistar rat assessed as decrease in carrageenan-induced hyperalgesia at 20 mg/kg, po administered 4 hrs after carrageenan-challenge measured after 30 mins (reference value: 34.8 +/- 3.0 g)
# Format: functional
The response must be a number in g with no trailing unit.

{"Substance smiles": "Cc1c(CCOCCO)cc(-c2ccc(S(C)(=O)=O)cc2)n1-c1ccc(F)c(F)c1", "Property": "Activity", "Unit annotation": "g", "Recorded result": 43.6}
{"Substance smiles": "Cc1c(CCOCCO)cc(-c2ccc(S(C)(=O)=O)cc2)n1-c1cccc(F)c1", "Property": "Activity", "Unit annotation": "g", "Recorded result": 46.9}
{"Substance smiles": "Cc1c(CCOCCO[N+](=O)[O-])cc(-c2ccc(S(C)(=O)=O)cc2)n1-c1ccc(F)cc1", "Property": "Activity", "Unit annotation": "g", "Recorded result": 56.8}
{"Substance smiles": "Cc1c(CCOCCO[N+](=O)[O-])cc(-c2ccc(S(C)(=O)=O)cc2)n1-c1ccccc1", "Property": "Activity", "Unit annotation": "g", "Recorded result": 54.2}

Reported Activity of Cc1c(CCOCCO[N+](=O)[O-])cc(-c2ccc(S(C)(=O)=O)cc2)n1-c1ccc(F)c(F)c1 : 44.6

Reported Activity of Cc1c(CCOCCO)cc(-c2ccc(S(C)(=O)=O)cc2)n1-c1ccc(F)cc1 : 46.8

Reported Activity of Cc1c(CCOCCO[N+](=O)[O-])cc(-c2ccc(S(C)(=O)=O)cc2)n1-c1cccc(F)c1 : 43.9
